Items are presented alongside their recorded EC50.
Tested on: recombinant AMPK proteins (α1β1γ1, α2β1γ1, α1(1-335), α1(1-394) or α2(1-394))
test-summary: Scintillation Proximity Assay (AMPK activation)
Assay type: biochemical, human
recorded-conditions: effective concentration of activator for 50% of maximal enzyme activity; 2 hr at 30° C.; AMPK form not specified
# output: bare number, implied unit µM

• O=C(O)c1cccc(CN2C(=O)[C@]3(C[C@@H]3c3ccc(F)cc3)c3ccccc32)c1 (racemic) = 5.75
• CS(=O)(=O)N1CCN(C(=O)c2cccc(CN3C(=O)[C@@]4(C[C@H]4c4ccc(Cl)cc4)c4ccccc43)c2)CC1 (racemic) = 5.14

Please find the next compound below.
[Q] Please give measured EC50 of the following entry: O=C(O)c1cccc(CN2C(=O)[C@]3(C[C@@H]3c3ccccc3F)c3ccccc32)c1 (mixture of isomers)
[A] 2.77
